# System: HCT-116 colon
# METHOD_DESCRIPTION: NCI-60 one-dose screen, 48 h (100 = growth as untreated, 0 = no growth, -100 = all killed)
# EXPERIMENTAL_PARAMETERS: 10 µM unless noted
# Description: Growth inhibition of the HCT-116 human tumor cell line is measured as a screen for anti-cancer activity. Cells are grown in 96 well plates and exposed to the test compound for 48 hours. Compounds are tested at a single concentration, which is 10^-5 M for most compounds. The reported endpoint is percent growth (GI% or GIPRCNT), where numbers from 0 - 100% represent growth inhibition, and numbers from -100% - 0 represent cell death. For example, a value of 40 represents 60% growth inhibition. […]
This is part of a sample that, as a whole, favours compounds with a hit. Of some 83,000 tested, about 20% had one in any assay.
Task for the reader: assign each of the following compounds its reported growth.
Numbers only; they are read as %.

### Prompt Quick check: growth of COc1ccc(C2=NN(c3ccccc3)C(c3ccc(OCc4ccccc4)c(OC)c3)C2)cc1OC (stereo not drawn) ?
### Response 85.9

### Prompt Quick check: growth of "Cc1c(C(=O)NNC(=O)Nc2ccc(Cl)cc2)nnn1-c1ccc(Br)cc1" ?
### Response 90.7

### Prompt Quick check: growth of C=C1CC[C@@H]2[C@]3(C)COC(c4cn[nH]c4-c4ccc(C)cc4)O[C@@H]3CC[C@@]2(C)[C@@H]1C/C=C1/C(=O)OCC1O (stereo partly drawn) ?
### Response -68.5

### Prompt Quick check: growth of "CN1CCN(Cc2ccc(C(=O)Nc3cccc(C#Cc4cccc5[nH]nc(N)c45)c3)cc2C(F)(F)F)CC1" ?
### Response -90.4

### Prompt Quick check: growth of "Cc1cccc(-c2nc(Nc3ccc(C)c(S(N)(=O)=O)c3)c3ccccc3n2)c1" ?
### Response 25.3

### Prompt Quick check: growth of COc1ccc(NC(=O)[C@@H](N)Cc2ccccc2)cc1C(=O)Nc1cccc(C2CC(=O)c3c(cc(OC)c(OC)c3OC)O2)c1 (stereo partly drawn) ?
### Response 45.2

### Prompt Quick check: growth of "CC(C)CSc1nc(NCCc2c[nH]c3ccccc23)c(C#N)c(-c2ccc(F)cc2)n1" ?
### Response 11.3

### Prompt Quick check: growth of Cc1nc(Nc2ncc(C(=O)Nc3c(C)cccc3Cl)s2)cc(N2CCN(CCCNC(=O)COc3ccc(C4CCC(=O)NC4=O)cc3)CC2)n1 (stereo not drawn) ?
### Response 42.2

### Prompt Quick check: growth of "COc1ccc2[nH]cc(-c3nnc(N)nc3-c3c[nH]c4ncc(Br)cc34)c2c1" ?
### Response 75.2

### Prompt Quick check: growth of "O=C(c1ccc(Cl)cc1)c1ccc(OCCCN2CCN(c3ccncc3)CC2)cc1" ?
### Response 17.4

### Prompt Quick check: growth of "COc1ccc(-c2nc3ccc(C(=O)NN4C(=O)c5ccc([N+](=O)[O-])cc5C4=O)cc3[nH]2)cc1" ?
### Response 102

### Prompt Quick check: growth of "N#Cc1c(-c2ccc(Cl)cc2)nc2n[nH]c(-c3ccc(Cl)cc3)c2c1-c1cccs1" ?
### Response 35.4

### Prompt Quick check: growth of "CC(C)c1ccc2c(N)c(C(=O)Nc3ccc(C(F)(F)F)cn3)sc2n1" ?
### Response 47.3

### Prompt Quick check: growth of "O=C(NN1C(=O)/C(=C/C=C/c2ccc([N+](=O)[O-])o2)SC1=S)c1ccccc1O" ?
### Response -68.5

### Prompt Quick check: growth of "Cc1c(C(=O)NNC(=O)c2ccc(Cl)cc2)nnn1-c1ccc(Br)cc1" ?
### Response 89.5

### Prompt Quick check: growth of "O=c1c2ccccc2nc(-c2ccccc2)n1/N=C/c1ccc2ccccc2c1" ?
### Response 22.1

### Prompt Quick check: growth of "COC(=O)C[C@](O)(CCCC(C)(C)O)C(=O)O[C@H]1C(OC)=C[C@@]23CCCN2CCc2cc4c(cc2[C@@H]13)OCO4" ?
### Response -29.4

### Prompt Quick check: growth of "CCCCSc1nc(Nc2ccc(S(N)(=O)=O)cc2)c(C#N)c(-c2ccc(Cl)cc2)n1" ?
### Response 1.12
